Below, each of the molecules is paired with its reported inhibition value.
Target Or Test System: DNA topoisomerase 2-alpha (Homo sapiens) (UniProt P11388)
Sequence (P11388 whole entry): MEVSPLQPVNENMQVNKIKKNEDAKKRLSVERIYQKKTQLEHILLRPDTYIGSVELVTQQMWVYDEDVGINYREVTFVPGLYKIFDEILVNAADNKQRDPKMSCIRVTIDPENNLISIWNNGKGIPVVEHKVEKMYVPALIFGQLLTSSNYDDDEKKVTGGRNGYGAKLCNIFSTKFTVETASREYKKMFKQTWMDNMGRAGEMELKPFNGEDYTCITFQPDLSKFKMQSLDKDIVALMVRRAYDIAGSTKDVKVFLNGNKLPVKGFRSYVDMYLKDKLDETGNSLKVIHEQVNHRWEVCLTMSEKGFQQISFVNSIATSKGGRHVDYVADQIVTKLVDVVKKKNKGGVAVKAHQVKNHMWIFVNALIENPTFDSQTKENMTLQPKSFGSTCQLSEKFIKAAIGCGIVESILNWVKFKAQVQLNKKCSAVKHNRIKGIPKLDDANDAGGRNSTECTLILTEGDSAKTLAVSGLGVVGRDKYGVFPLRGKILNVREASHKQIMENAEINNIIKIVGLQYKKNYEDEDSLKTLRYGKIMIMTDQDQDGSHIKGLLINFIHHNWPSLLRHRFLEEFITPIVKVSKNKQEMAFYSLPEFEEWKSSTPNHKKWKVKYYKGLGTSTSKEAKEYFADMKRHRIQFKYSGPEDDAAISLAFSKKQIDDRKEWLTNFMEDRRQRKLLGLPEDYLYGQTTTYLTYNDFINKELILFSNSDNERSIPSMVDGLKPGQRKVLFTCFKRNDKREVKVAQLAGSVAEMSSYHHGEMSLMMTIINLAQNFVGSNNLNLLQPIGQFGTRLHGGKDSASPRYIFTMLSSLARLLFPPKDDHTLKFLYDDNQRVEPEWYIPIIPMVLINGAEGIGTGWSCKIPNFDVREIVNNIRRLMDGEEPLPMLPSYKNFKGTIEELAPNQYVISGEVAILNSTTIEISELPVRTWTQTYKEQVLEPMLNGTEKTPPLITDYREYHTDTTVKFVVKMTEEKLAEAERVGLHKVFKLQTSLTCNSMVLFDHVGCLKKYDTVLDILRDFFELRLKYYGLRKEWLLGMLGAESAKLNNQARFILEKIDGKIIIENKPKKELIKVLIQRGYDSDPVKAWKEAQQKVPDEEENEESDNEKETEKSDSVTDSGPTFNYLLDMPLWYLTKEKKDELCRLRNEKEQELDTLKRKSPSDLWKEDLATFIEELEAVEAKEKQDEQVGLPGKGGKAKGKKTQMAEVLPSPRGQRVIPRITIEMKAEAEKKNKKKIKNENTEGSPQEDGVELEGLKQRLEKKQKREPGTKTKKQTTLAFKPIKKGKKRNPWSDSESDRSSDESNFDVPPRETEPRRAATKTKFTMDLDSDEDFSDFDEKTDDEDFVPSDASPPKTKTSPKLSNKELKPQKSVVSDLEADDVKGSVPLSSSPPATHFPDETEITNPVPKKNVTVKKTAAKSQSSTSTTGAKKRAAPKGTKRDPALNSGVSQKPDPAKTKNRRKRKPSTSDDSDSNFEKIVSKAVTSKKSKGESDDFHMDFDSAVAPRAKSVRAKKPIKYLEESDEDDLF
Test Summary: Inhibition of human DNA topoisomerase 2 alpha-mediated DNA relaxation at 100 uM incubated for 30 mins using pBR322 DNA substrate by ethidium bromide dye-based agarose gel electrophoresis
Measured Parameter: inhibition (%)

1) COc1cc(OC)cc(-c2cc3cc(OC)c(OC)cc3c(-c3cccc(O)c3)n2)c1 :: 0
2) COc1cc(OC)cc(-c2cc3ccccc3c(-c3ccc(O)cc3)n2)c1 :: 51.2
3) COc1ccc(-c2cc3ccccc3c(-c3ccc(OC)cc3)n2)cc1 :: 7.4
4) COc1ccc(-c2cc3cc(C)ccc3c(-c3cccc(OCCN(C)C)c3)n2)c(C)c1 :: 49.6
5) COc1cccc(-c2nc(-c3ccc(OC)c(OC)c3)cc3cc(C)ccc23)c1 :: 0

* * *

Target Or Test System: DNA topoisomerase 1 (Homo sapiens)
Sequence (whole entry): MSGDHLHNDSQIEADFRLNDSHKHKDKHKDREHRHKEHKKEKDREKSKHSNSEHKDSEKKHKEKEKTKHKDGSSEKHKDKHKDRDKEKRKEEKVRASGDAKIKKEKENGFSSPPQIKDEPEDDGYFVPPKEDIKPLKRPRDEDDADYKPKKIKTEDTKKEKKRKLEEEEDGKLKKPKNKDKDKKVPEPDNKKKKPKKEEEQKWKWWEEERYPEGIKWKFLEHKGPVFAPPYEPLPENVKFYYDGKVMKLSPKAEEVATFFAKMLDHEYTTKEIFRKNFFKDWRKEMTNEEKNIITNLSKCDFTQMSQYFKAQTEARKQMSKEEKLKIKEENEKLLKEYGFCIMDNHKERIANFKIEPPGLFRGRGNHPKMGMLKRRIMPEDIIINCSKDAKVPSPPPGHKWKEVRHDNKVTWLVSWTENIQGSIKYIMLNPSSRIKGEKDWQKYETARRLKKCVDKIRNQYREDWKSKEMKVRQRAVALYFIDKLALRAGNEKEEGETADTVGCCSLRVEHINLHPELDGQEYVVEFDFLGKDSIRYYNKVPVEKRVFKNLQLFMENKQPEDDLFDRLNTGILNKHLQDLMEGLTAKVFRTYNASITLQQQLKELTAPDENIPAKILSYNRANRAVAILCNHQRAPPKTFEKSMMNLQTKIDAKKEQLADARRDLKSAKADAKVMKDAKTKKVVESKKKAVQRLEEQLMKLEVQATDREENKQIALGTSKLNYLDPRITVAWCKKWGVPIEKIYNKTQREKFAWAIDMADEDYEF
Test Summary: Inhibition of human recombinant DNA topoisomerase 1-mediated DNA relaxation at 100 uM incubated for 30 mins using pBR322 DNA substrate by ethidium bromide dye-based agarose gel electrophoresis
Below, each of the compounds is paired with its reported inhibition value.
Measured Parameter: inhibition (%)

1) COc1cc(OC)cc(-c2cc3ccccc3c(-c3ccc(O)cc3)n2)c1 :: 0
2) COc1ccc(-c2cc3ccccc3c(-c3ccc(O)cc3)n2)cc1 :: 6.7
3) COc1cc(OC)cc(-c2cc3ccccc3c(-c3cccc(OC)c3)n2)c1 :: 0
4) COc1ccc(-c2cc3cc(C)ccc3c(-c3cccc(N)c3)n2)c(C)c1 :: 79.7
5) COc1cc(OC)cc(-c2cc3cc(OC)c(OC)cc3c(-c3cccc(O)c3)n2)c1 :: 4.6
6) COc1cc(OC)cc(-c2cc3ccc(N(C)C)cc3c(-c3cccc(N)c3)n2)c1 :: 73.1
7) COc1ccc(-c2nc(-c3ccc(OC)c(OC)c3)cc3cc(C)ccc23)cc1 :: 2.3
8) COc1cc(OC)cc(-c2cc3ccccc3c(-c3cccc(O)c3)n2)c1 :: 0
9) COc1ccc(-c2cc3cc(C)ccc3c(-c3ccc(OCCN(C)C)cc3)n2)cc1OC :: 79.6
10) COc1ccc(-c2cc3cc(C)ccc3c(-c3cccc(N)c3)n2)cc1OC :: 7.2

* * *

Test system: T47D
Test Summary: Cytotoxicity against human T47D cells after 72 hrs by cell counting kit-8 analysis
Assay type: functional, cell-based
Measured Parameter: IC50 (µM)

1) COc1cc(OC)cc(-c2cc3ccccc3c(-c3cccc(N)c3)n2)c1 :: 0.98
2) COc1cc(OC)cc(-c2cc3cc(OC)c(OC)cc3c(-c3cccc(O)c3)n2)c1 :: 3.92
3) COc1ccc(-c2cc3ccccc3c(-c3ccc(O)cc3)n2)cc1 :: 1.22
4) COc1ccc(-c2cc3cc(C)ccc3c(-c3cccc(N)c3)n2)c(C)c1 :: 0.74
5) COc1ccc(-c2cc3ccccc3c(-c3ccc(OC)cc3)n2)cc1 :: 0.85
6) COc1cccc(-c2nc(-c3ccc(OC)c(OC)c3)cc3cc(C)ccc23)c1 :: 7.86
7) COc1ccc(-c2nc(-c3ccc(OC)c(OC)c3)cc3cc(C)ccc23)cc1 :: 3.34
8) COc1cc(OC)cc(-c2cc3ccc(N(C)C)cc3c(-c3cccc(N)c3)n2)c1 :: 3.59
9) COc1ccc(-c2cc3cc(C)ccc3c(-c3cccc(OCCN(C)C)c3)n2)c(C)c1 :: 0.6
10) COc1cc(OC)cc(-c2cc3ccccc3c(-c3cccc(OC)c3)n2)c1 :: 1.12
11) COc1ccc(-c2cc3cc(C)ccc3c(-c3ccc(O)cc3)n2)cc1OC :: 4.42
12) COc1ccc(-c2cc3cc(C)ccc3c(-c3ccc(OCCN(C)C)cc3)n2)cc1OC :: 2.33

* * *

Organism: Sus scrofa
Test Summary: Inhibition of porcine brain tubulin polymerization at 10 uM after 61 mins by spectroscopic analysis
Calls of active or inactive are those of the source. No cut-off for these calls is given here.
Outcome codes: t (active), f (inactive)

1. COc1cc(OC)cc(-c2cc3ccccc3c(-c3ccc(O)cc3)n2)c1 :: f
2. COc1ccc(-c2cc3cc(C)ccc3c(-c3cccc(O)c3)n2)c(C)c1 :: t
3. COc1cc(OC)cc(-c2cc3ccc(N(C)C)cc3c(-c3cccc(N)c3)n2)c1 :: f
4. COc1cc(OC)cc(-c2cc3ccccc3c(-c3cccc(O)c3)n2)c1 :: f

* * *

Target Or Test System: DNA topoisomerase 1 (Homo sapiens)
Sequence (whole entry): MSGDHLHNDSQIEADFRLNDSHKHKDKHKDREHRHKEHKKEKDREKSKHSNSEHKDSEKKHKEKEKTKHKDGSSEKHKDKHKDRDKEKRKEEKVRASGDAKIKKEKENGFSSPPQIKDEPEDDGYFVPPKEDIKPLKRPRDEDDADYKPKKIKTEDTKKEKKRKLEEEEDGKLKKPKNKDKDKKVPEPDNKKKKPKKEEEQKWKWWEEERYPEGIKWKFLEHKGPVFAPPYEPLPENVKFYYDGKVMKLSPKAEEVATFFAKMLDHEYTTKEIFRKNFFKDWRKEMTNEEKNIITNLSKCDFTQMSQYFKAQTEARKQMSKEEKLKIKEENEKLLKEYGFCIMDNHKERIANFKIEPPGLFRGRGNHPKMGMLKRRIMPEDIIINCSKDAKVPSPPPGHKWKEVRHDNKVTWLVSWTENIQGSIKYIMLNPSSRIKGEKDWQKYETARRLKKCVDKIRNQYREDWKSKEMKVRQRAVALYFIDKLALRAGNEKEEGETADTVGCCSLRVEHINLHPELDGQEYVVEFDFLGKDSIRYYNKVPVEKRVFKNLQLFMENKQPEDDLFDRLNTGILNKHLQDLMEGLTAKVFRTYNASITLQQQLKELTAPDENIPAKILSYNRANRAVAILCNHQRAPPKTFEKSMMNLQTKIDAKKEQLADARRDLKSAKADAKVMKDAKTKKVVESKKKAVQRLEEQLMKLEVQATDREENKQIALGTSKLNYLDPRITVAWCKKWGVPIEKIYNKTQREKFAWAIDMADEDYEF
Test Summary: Inhibition of human recombinant DNA topoisomerase 1-mediated DNA relaxation at 100 uM incubated for 30 mins using pBR322 DNA substrate by ethidium bromide dye-based agarose gel electrophoresis
Measured Parameter: inhibition (%)

1. COc1ccc(-c2cc3cc(C)ccc3c(-c3cccc(OCCN(C)C)c3)n2)c(C)c1 :: 3.7
2. COc1ccc(-c2cc3ccccc3c(-c3cccc(N)c3)n2)cc1 :: 0
3. COc1ccc(-c2cc3ccccc3c(-c3cccc(OCCCN(C)C)c3)n2)cc1 :: 47.9
4. COc1ccc(-c2cc3ccccc3c(-c3cccc(OC)c3)n2)cc1 :: 43.2
5. COc1ccc(-c2cc3cc(C)ccc3c(-c3cccc(OCCCN(C)C)c3)n2)c(C)c1 :: 39.3

* * *

Test system: T47D
Test Summary: Cytotoxicity against human T47D cells after 72 hrs by cell counting kit-8 analysis
Format: functional, cell-based
pIC50: −log10 of the molar value.
Given measured pIC50, output Yes if it is greater than or equal to 6 and No if not.

1. COc1ccc(-c2cc3cc(C)ccc3c(-c3cccc(O)c3)n2)c(C)c1 :: Yes
2. COc1ccc(-c2cc3cc(C)ccc3c(-c3cccc(OCCCN(C)C)c3)n2)c(C)c1 :: Yes
3. COc1ccc(-c2cc3ccccc3c(-c3cccc(O)c3)n2)cc1 :: Yes
4. COc1ccc(-c2cc3cc(C)ccc3c(-c3cccc(N)c3)n2)cc1OC :: Yes
5. COc1ccc(-c2cc3ccccc3c(-c3cccc(OCCCN(C)C)c3)n2)cc1 :: Yes
6. COc1ccc(-c2cc3cc(C)ccc3c(-c3cccc(O)c3)n2)cc1OC :: No

The values you see were collected from ChEMBL document CHEMBL4251575.
